Target: Endonuclease 8-like 1 (Homo sapiens) (UniProt Q96FI4);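 note: fluorescence at 594 nm from quenched duplex DNA oligonucleotides released by NEIL1 cleavage and strand separation, reported as reduction of this enzyme activity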
Sequence (Q96FI4 whole entry): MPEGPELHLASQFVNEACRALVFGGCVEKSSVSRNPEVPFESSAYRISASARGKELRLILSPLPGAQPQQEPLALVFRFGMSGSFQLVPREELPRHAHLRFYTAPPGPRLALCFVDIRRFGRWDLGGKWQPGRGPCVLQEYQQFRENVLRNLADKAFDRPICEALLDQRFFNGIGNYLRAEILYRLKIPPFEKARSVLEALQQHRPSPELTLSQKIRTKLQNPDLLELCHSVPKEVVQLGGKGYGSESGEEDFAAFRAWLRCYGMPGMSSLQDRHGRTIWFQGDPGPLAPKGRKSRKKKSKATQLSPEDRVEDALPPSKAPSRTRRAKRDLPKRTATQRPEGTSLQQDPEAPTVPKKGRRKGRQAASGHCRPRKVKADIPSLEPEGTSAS
Details: Compound Concentration 10.0 uM, Hit No
Description: Inhibition of NEIL1 by quantifying inhibition of NEIL1-mediated cleavage and dissociation of quenched duplex DNA oligonucleotides, measured as fluorescence at 594 nm.
So I've got a bunch of molecules here, and I need their inhibition values.
Answers are plain numbers, in %.

Lookup: Kindly indicate its recorded inhibition. Item: "C[C@]1(O)C[C@@H](c2nc(-c3ccc4ccc(-c5ccccc5)nc4c3)c3c(N)nccn32)C1"
Found: 4.89

Lookup: Kindly indicate its recorded inhibition. Item: OCc1cc(C(O)CNCCCCCCOCCCCc2ccccc2)ccc1O (stereo not given)
Found: 8.39

Lookup: Kindly indicate its recorded inhibition. Item: "O=c1c(Br)ccc2n1C[C@@H]1CNC[C@H]2C1"
Found: 1.79

Lookup: Kindly indicate its recorded inhibition. Item: CCOC(=O)c1c(C)[nH]c2ccc3c(c12)CN1CCc2cc(OC)ccc2C1O3 (stereo not given)
Found: -0.0556

Lookup: Kindly indicate its recorded inhibition. Item: "Cn1cc(-c2ccc3occ(-c4ccccc4-c4ccccc4)c3n2)cn1"
Found: 6.35

Lookup: Kindly indicate its recorded inhibition. Item: "COC1(C[S@@+]([O-])c2ccccc2)CCN(CCc2c[nH]c3ccc(F)cc23)CC1"
Found: 5.2

Lookup: Kindly indicate its recorded inhibition. Item: "COc1cc(N(C)c2ccnc3ccc(C(F)(F)F)cc23)cc(OC)c1OC"
Found: 4.23

Lookup: Kindly indicate its recorded inhibition. Item: "CN1CCN(Cc2ccc(-c3cccc(C(=O)Nc4ccccc4CC(=O)O)c3)cc2)CC1"
Found: 17.2

Field: inhibition. Fill in for each record below.
1. Cc1c(N2CCCC2)nc2ccc(Br)cc2c1C(=O)NC[C@H](CCC(=O)O)c1ccccc1Cl
2. CC(C)(O)c1cn(-c2ccc(-c3cccc(S(C)(=O)=O)c3)cc2)c(C(C)(C)c2ccccc2Cl)n1

Found:
3.19
-5.44

====

So I've got a bunch of molecules here, and I need their inhibition values.
Target: Endonuclease 8-like 2 (Homo sapiens) (UniProt Q969S2);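 note: fluorescence at 594 nm reports NEIL2 cutting and release of a quenched double-stranded DNA oligo substrate, reduced signal read as inhibition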
Sequence (whole entry): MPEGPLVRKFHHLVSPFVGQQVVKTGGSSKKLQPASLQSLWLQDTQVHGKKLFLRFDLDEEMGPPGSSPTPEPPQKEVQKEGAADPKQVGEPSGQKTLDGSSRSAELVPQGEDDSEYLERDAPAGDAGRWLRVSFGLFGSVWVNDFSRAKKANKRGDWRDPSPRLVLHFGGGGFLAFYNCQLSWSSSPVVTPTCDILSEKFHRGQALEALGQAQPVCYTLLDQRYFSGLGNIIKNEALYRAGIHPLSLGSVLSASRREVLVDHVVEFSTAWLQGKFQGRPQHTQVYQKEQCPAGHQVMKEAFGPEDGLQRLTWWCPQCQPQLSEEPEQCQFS
Conditions: Compound Concentration 10.0 uM, Hit No
Description: Inhibition of NEIL2 by quantifying inhibition of NEIL2-mediated cleavage and dissociation of quenched duplex DNA oligonucleotides, measured as fluorescence at 594 nm.
Where a SMILES comes first, the peptide text is derived from it.
Give bare numbers, in %.

Answered cases to consult:
Lookup: Provide Endonuclease 8-like 2 (Homo sapiens) (UniProt Q969S2) inhibition reading for "COc1ccc(S(=O)(=O)N2C(=O)[C@@](c3ccccc3OC)(N3C[C@H](O)C[C@H]3C(=O)N(C)C)c3cc(Cl)ccc32)c(OC)c1" .
Found: -8.25

Lookup: Provide Endonuclease 8-like 2 (Homo sapiens) (UniProt Q969S2) inhibition reading for "Nc1nc2cc(-c3cc(Cl)ccc3Oc3cc(F)c(S(=O)(=O)Nc4ncns4)cc3F)ccc2[nH]1" .
Found: -7.23

Lookup: Provide Endonuclease 8-like 2 (Homo sapiens) (UniProt Q969S2) inhibition reading for "CC(=O)N1CCC(c2ccc(C(=O)NC3=NCCN3)cc2C(F)(F)F)CC1" .
Found: 6.91

Field: inhibition. Fill in for each record below.
1. CN(C)CC#Cc1ccc(OCCCc2sc(N3CCc4cccc(C(=O)Nc5nc6ccccc6s5)c4C3)nc2C(=O)O)c(F)c1
2. O=C1c2ccc(Nc3ccc(F)cc3F)cc2CCc2ccc(OC[C@H](O)CO)cc21
3. O=C1c2ccccc2C(Cc2ccncc2)(Cc2ccncc2)c2ccccc21
4. CC(F)(F)CN1CCOc2c(nn(-c3ccccc3Cl)c2-c2ccc(Cl)cc2)C1=O
5. CN(C)[C@@H]1CCN(c2cc(-c3ccccc3)nc3ccnn23)C1

Found:
-4.83
4.92
-2.64
4.76
22.2

Field: inhibition. Fill in for each record below.
1. Cc1cccc(F)c1C(=O)Nc1cnc(-c2cc3c(cc2Cl)OC(F)(F)O3)cn1
2. N[C@@H]1c2cccnc2[C@H](OC(=O)N2CCC(n3c(=O)[nH]c4ncccc43)CC2)CC[C@H]1c1cccc(F)c1F
3. CCC(=O)NCC[C@@H]1CCc2ccc3c(c21)CCO3

Found:
[6.27, 0.515, 6]

Field: inhibition. Fill in for each record below.
1. CCCCCCOc1cc2n(c(=O)n1)CCc1cc(OC)c(OC)cc1-2
2. O=c1c2cccn2c2ccccc2n1CCCN1CCC(c2ccc(Cl)cc2)CC1

Found:
[-5.45, 7.75]

Field: inhibition. Fill in for each record below.
1. COC(=O)[C@H]1[C@H]2C[C@H]3c4[nH]c5ccccc5c4CCN3C[C@H]2CC[C@@H]1O
2. CCOC(=O)c1c(C)[nH]c2ccc3c(c12)CN1CCc2cc(OC)ccc2C1O3 (centres undefined)
3. COc1nc2ccc([C@@](O)(c3ccc(Cl)cc3)c3cncn3C)cc2c(Cl)c1Cc1ccc(-n2cccn2)cc1
4. COc1cccc(OC)c1-c1cc(C(=O)NC2(C(=O)O)C3CC4CC(C3)CC2C4)nn1-c1ccnc2cc(Cl)ccc12 (centres undefined)

Found:
1: 9.75; 2: 3.01; 3: -3.55; 4: -7.72

Field: inhibition. Fill in for each record below.
1. COc1ccccc1S(=O)(=O)Nc1ccc(C)cc1Oc1ccc2c(N)nccc2c1
2. COc1c(Nc2ccc(S(C)(=O)=O)nc2C)ncnc1OC1CCN(C(=O)OC(C)C)CC1

Found:
1: 7.55; 2: 6

Field: inhibition. Fill in for each record below.
1. CN(Cc1cccc(F)c1CNc1cc(F)c(S(=O)(=O)Nc2cscn2)c(F)c1)C(C)(C)C
2. CC(C)(O)c1ccccc1CC[C@@H](SCC1(CC(=O)O)CC1)c1cccc(/C=C/c2ccc3ccc(Cl)cc3n2)c1
3. O=C(COc1cccc2ccccc12)Nc1cc(Cl)ccc1C(=O)O

Found:
[-2.39, 14, 5.25]

Field: inhibition. Fill in for each record below.
1. Clc1cccc(Cl)c1NC1=NCCN1
2. C=CC(=O)Nc1ccc2[nH]c(=O)n(C3CCN(C(=O)c4ccc(-c5nc6cc[nH]c(=O)c6cc5-c5ccccc5)cc4)CC3)c2c1
3. CCC(=O)OCC(=O)[C@@]1(OC(=O)CC)[C@@H](C)C[C@H]2[C@@H]3CCC4=CC(=O)C=C[C@]4(C)[C@@]3(Cl)[C@@H](O)C[C@@]21C
4. CC(C)C[C@H](NC(=O)[C@H](CC(N)=O)NC(=O)[C@@H]1CCCN1C(=O)[C@@H](N)C(C)C)C(=O)N1CCC[C@H]1C(=O)N[C@@H](CCC(N)=O)C(=O)N[C@@H](CCCNC(=N)N)C(=O)N[C@@H](Cc1ccccc1)C(N)=O
5. CC(C)C[C@@H]1NC(=O)[C@@H](C(C)C)NC(=O)[C@@H]2CCCN2C(=O)[C@@H](CC(=O)O)NC(=O)[C@@H](Cc2c[nH]c3ccccc23)NC1=O (HELM PEPTIDE1{L.[dW].[dD].P.[dV]}$PEPTIDE1,PEPTIDE1,1:R1-5:R2$$$V2.0)

Found:
1: 1.76; 2: 19.4; 3: 7; 4: 4.75; 5: 0.764

Field: inhibition. Fill in for each record below.
1. COc1cc(Br)c(S(=O)(=O)Nc2ccc(C(F)(F)F)c(O[C@@H]3CCN(C)C3)c2)cc1OC
2. CCCN(CCC)[C@@H]1CCc2ccc3[nH]c(C#N)cc3c2C1

Found:
1. -4.68
2. 9.08

====

Target: Adenine DNA glycosylase (Homo sapiens) (UniProt Q9UIF7);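 note: human MUTYH activity read as 594 nm fluorescence from cleavage and release of a quenched DNA duplex, coupled with APE1 for strand incision, lower signal meaning inhibition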
Sequence (Q9UIF7 whole entry): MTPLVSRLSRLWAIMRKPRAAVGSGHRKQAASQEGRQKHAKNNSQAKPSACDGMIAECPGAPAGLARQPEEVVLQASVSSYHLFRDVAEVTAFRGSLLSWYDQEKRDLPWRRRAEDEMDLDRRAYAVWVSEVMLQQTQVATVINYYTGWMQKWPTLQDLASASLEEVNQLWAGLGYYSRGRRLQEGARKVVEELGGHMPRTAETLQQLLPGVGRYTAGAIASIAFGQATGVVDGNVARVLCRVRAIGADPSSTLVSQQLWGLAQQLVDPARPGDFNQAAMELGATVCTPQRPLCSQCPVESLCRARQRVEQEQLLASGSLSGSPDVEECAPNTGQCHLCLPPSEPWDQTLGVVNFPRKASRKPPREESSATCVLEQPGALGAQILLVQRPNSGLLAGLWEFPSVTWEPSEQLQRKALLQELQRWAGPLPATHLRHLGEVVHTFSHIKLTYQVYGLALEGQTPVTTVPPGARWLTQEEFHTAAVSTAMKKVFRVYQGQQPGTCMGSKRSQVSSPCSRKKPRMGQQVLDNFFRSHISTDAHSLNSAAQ
Conditions: Compound Concentration 10.0 uM, Hit No
Description: Inhibition of MUTYH by quantifying inhibition of MUTYH-mediated cleavage and dissociation of quenched duplex DNA oligonucleotides, measured as fluorescence at 594 nm. To generate a functional strand incision and increase turn-over this assay is coupled to APE1.
Give criterion met when the value for inhibition is at least 10%. Give criterion not met when it is less.

A selection of reference data follows.
Lookup: Does inhibition meet or surpass 10% for "C[C@@H](NC(=O)Nc1cc2[nH]ncc2c(CO)n1)c1ccccc1" ?
Found: criterion not met

Lookup: Does inhibition meet or surpass 10% for "CC(=O)Nc1c(C(C)=O)c(=O)n(C)c2nc(-c3ccc(Cl)cc3Cl)c(-c3ccc(Cl)cc3)cc12" ?
Found: criterion met

Lookup: Does inhibition meet or surpass 10% for "N[C@@H](Cc1cc(I)c(Oc2ccc(O)c(I)c2)c(I)c1)C(=O)O" ?
Found: criterion met

Lookup: Does inhibition meet or surpass 10% for "O=S(=O)(Nc1ccc(C(O)(C(F)(F)F)C(F)(F)F)cc1)c1cccs1" ?
Found: criterion met

---
Lookup: Does inhibition meet or surpass 10% for "O=C(O)COc1cccc(-c2ocnc2-c2nc(-c3ccccc3)c(-c3ccccc3)o2)c1" ?
Found: criterion met

====

So I've got a bunch of compounds here, and I need their inhibition values.
Biological target: Uracil-DNA glycosylase (Homo sapiens);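 note: UNG excision on a quenched double-stranded DNA oligo probe, with APE1 added for strand incision and turnover, read as fluorescence at 594 nm as strands separate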
Settings: Compound Concentration 10.0 uM, Hit No
Description: Inhibition of UNG by quantifying inhibition of UNG-mediated cleavage and dissociation of quenched duplex DNA oligonucleotides, measured as fluorescence at 594 nm. To generate a functional strand incision and increase turn-over this assay is coupled to APE1.
Numbers only, in %.

Answered cases to consult:
Lookup: Kindly indicate its recorded inhibition. Item: N#Cc1cc2c(OCC(O)CN3CCN(C(c4ccccc4)c4ccccc4)CC3)cccc2[nH]1 (racemic)
Found: -9.6

Lookup: Kindly indicate its recorded inhibition. Item: "O=C(NCCCn1ccnc1)c1cc2nc(-c3ccccc3)cc(-c3ccccc3)n2n1"
Found: 4.11

Lookup: Kindly indicate its recorded inhibition. Item: "CC(=O)C1=C(C)N(c2cccc(C(F)(F)F)c2)C(=O)N[C@H]1c1ccc(C#N)nc1"
Found: -0.968

Lookup: Kindly indicate its recorded inhibition. Item: "Cc1cc(OC2CCS(=O)(=O)CC2)cc(C)c1-c1cccc(COc2ccc(C(=O)O)c(F)c2)c1"
Found: 6.33

Lookup: Kindly indicate its recorded inhibition. Item: "CCCC(=O)C1CCN(c2ncnc3c2CN(C(=O)c2ccc(-c4ccccc4)cc2)CC3)CC1"
Found: -3.39

Field: inhibition. Fill in for each record below.
1. CCCCC/C=C\C/C=C\C/C=C\C/C=C\CCCC(=O)OC(CO)CO
2. CCN(c1ccccc1)c1cc(NC)[n+](C)c(C)n1

Found:
[-9.11, -8.21]

Field: inhibition. Fill in for each record below.
1. CCc1ccccc1C(=O)Nc1n[nH]c2c(C)c(F)c(C3C(C#N)=C(C)N(C)C(C)=C3C#N)cc12
2. COc1cccc(Cn2cc(C(=O)Nc3ccc(C)c(S(=O)(=O)N4CCOCC4)c3)c(-c3ccc(C)cc3)n2)c1
3. CCc1cccc(CC)c1NC(=O)c1nn(C)c2c1CCc1cnc(Nc3ccc(C(=O)NC4CCN(C)CC4)cc3OC(F)(F)F)nc1-2
4. O=c1ccn([C@@H]2O[C@H](COP(=O)(O)OP(=O)(O)O)[C@@H](O)[C@H]2O)c(=O)[nH]1
5. CC(C)(C)c1cc(C(C)(C)C)c(NC(=O)c2c[nH]c3ccccc3c2=O)cc1O

Found:
1: 9.1; 2: -6.33; 3: 2.73; 4: -4.06; 5: 1.6

Field: inhibition. Fill in for each record below.
1. CCOC(=O)C1=C[C@]2(CC)CCCN3CCc4c(n1c1ccccc41)[C@@H]32
2. Cc1cccc(-c2cnc3occ(-c4ccc(C(=O)O)c(C5CCCC5)c4)c3c2)c1
3. CCOC(=O)c1cc(C#N)c(N2CCC(C(=O)NS(=O)(=O)Cc3ccccc3)CC2)nc1C
4. OCCN1CCN(CCCN2c3ccccc3Sc3ccc(Cl)cc32)CC1
5. O=C1c2cccc3c2[C@H](CCC3)CN1[C@@H]1CN2CCC1CC2
6. Cc1c(F)cccc1NC(=O)Nc1ccc(Cl)c(S(=O)(=O)[C@H]2CCCNC2)c1O
7. O=c1c2cccn2c2ccccc2n1CCCN1CCC(c2ccc(Cl)cc2)CC1

Found:
1. -5.08
2. -0.203
3. -6.55
4. -5.33
5. -7.93
6. -9.51
7. -8.09

Field: inhibition. Fill in for each record below.
1. N=C(N)NCCC[C@@H](NC(=O)C(c1ccccc1)c1ccccc1)C(=O)NCc1ccc(CNC(N)=O)cc1
2. COc1ccc2[nH]c(I)c(CCNC(C)=O)c2c1
3. Cn1ncc2c(-c3c(-c4ccc(F)cn4)nn4c3COC(C)(C)C4)ccnc21
4. O=C(Nc1c(-c2cccs2)nc2ccc(Cl)cn12)c1ccc(Cl)cc1
5. COc1cc2nc(N3CCN(C(=O)C4CCCO4)CC3)nc(N)c2cc1OC (centres undefined)
6. FC(F)c1nc2ccccc2n1-c1nc(N2CCOCC2)nc(N2CCOCC2)n1
7. Cc1ccccc1C(=O)Nc1ccc(C(=O)N2CCCC(N(C)C)c3ccccc32)cc1 (centres undefined)
8. COc1ccc(Cl)cc1[C@]1(F)C(=O)Nc2cc(C(F)(F)F)ccc21

Found:
1: -1.81; 2: -9.84; 3: 1.59; 4: -4.66; 5: -7.11; 6: -3.48; 7: -2.08; 8: -2.84
